src = the supplement of paper PMC6757056

B1: library; a variant is named by its letters at N, in order (parent)
chain: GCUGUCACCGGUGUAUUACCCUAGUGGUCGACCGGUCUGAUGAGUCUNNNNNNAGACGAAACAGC

# Variants of: B1
# test summary: normalized RNA/DNA level without ligand (relative to sTRSVctl = 100) (log10 (% of sTRSVctl)); ligand: hypoxanthine (xanthine aptamer); higher = less ribozyme self-cleavage, higher mRNA level
# cond: HEK293T, reporter: mCherry (pCS4076), ligand present: no
property measured: normalized RNA/DNA level without ligand (log10)

> print(dat)
    mutations  quantitative.result
 1     UUUACC                 1.87
 2     UAGAUU                 1.87
 3     ACGAUA                 1.58
 4     CCGCCC                 1.99
 5     UUGGUC                 2.01
 6     AACGCU                 1.85
 7     UUGUUU                 2.04
 8     ACUCUC                 2.01
 9     UUAGGC                 1.89
10     GUAUAU                  1.8
11     AGUAAU                 1.85
12     CUCAGC                 1.96
13     UCGGUA                 1.56
14     AUGCAA                 1.72
15     CGGUAA                 1.27
16     CCUUCC                 1.96
17     ACAGAG                 1.34
18     CAAGGA                 1.79
19     UUGCCG                 1.83
20     UCCCGC                 1.51
21     AAGUAA                  1.6
22     GAGCAC                 1.71
23     CGCGUU                  1.9
24     UAAUUU                 1.89
25     UUGCUC                 1.99
26     AUCUAC                 1.86
27     CAAGGG                 1.28
28     ACCUCG                 1.62
29     GAAGUA                 1.74
30     GGAGAG                  1.3
31     UAUCCC                  1.9
32     UCCAGU                 1.77
33     UCAUCC                    2
34     CCUCUA                 1.93
35     GUUUUA                 1.86
36     CUAUAU                 1.81
37     UGCAGG                 1.39
38     ACCGAG                  1.3
39     GAUACG                 1.49
40     GCCCAA                  1.8
41     ACAGAA                 1.75
42     ACACUC                 1.97
43     UACCUU                 1.89
44     CCUAGU                 1.87
45     UUAGUU                 1.85
46     GAGAUU                 1.82
47     UAGCUG                 1.77
48     UCGAGA                 1.16
49     CAUCGG                 1.63
50     AAUAAC                 1.81
51     UAGUCC                 1.92
52     GUGACA                 1.78
53     UACUUG                 1.72
54     GUACUC                 1.92
55     UUGUAC                 1.97
56     GUCCUU                 1.95
57     GCAUGG                 1.33
58     GAACAA                 1.73
59     CCGCAU                 1.79
60     UUGUCA                 1.95
61     GGACUA                 1.84
62     GUUCAG                 1.55
63     CAGACU                 1.92
64     CGUGCA                 1.72
65     CCAGGG                 1.37
66     AUUACC                 1.94
67     UGCUGC                 1.96
68     AAUCUG                 1.43
69     UUCCGC                 1.89
70     UUUCCC                 1.96
71     AAUGUG                 1.39
72     AUUUCU                 1.92
73     GAAAGU                 1.75
74     GUCCCA                  1.9
75     CAUAAG                 1.71
76     GACAUU                 1.86
77     UCACUG                 1.55
78     GCAGUC                 1.71
79     UCUUCC                 1.92
80     AGCAGU                 1.44
81     CAUUGA                 1.82
82     GUAUGU                 1.77
83     UAUUGA                 1.74
84     AUCGUG                  1.4
85     GAAUGC                 1.53
86     UGGCAA                 1.77
